Read-out: Thyroid Hormone Responsive (THRSP), THRSP (gene 7069)
assay_info: LTEA_HepaRG_THRSP: Life Technologies and Expression Analysis (LTEA) Assay for Thyroid Hormone Responsive (THRSP) using HepaRG (AID 2283536)
details: mRNA level, 48 h; actives raise or lower the signal
Calls of active or inactive are those of the source. How the source made its calls: active means hit-call score of the fitted dose curve at least 0.9, where 1 is the maximum; inactive means score below 0.9.
Choose one outcome from this list and give only that: active, inactive

// known answers, use as guide
O=C(OC[C@H]1O[C@@H](OC(=O)c2cc(O)c(O)c(OC(=O)c3cc(O)c(O)c(O)c3)c2)[C@H](OC(=O)c2cc(O)c(O)c(OC(=O)c3cc(O)c(O)c(O)c3)c2)[C@@H](OC(=O)c2cc(O)c(O)c(OC(=O)c3cc(O)c(O)c(O)c3)c2)[C@@H]1OC(=O)c1cc(O)c(O)c(OC(=O)c2cc(O)c(O)c(O)c2)c1)c1cc(O)c(O)c(OC(=O)c2cc(O)c(O)c(O)c2)c1 :: active
CC[C@H]1CC[C@H](NCc2cc3c(cc2OC)[C@H]2C[C@H]2C(=O)N3C)[C@H](c2ccccc2)N1 :: active
CCn1nc(Cc2ccccc2)cc1C1CCN(C[C@H]2C[C@H](N(C)[C@@H](C(=O)O)C(C)C)C[C@@H]2c2cccc(F)c2)CC1 :: inactive
CC(C)(O)c1coc(S(=O)(=O)NC(=O)Nc2c3c(cc4c2CCC4)CCC3)c1 :: inactive
CCN(C(=O)c1cc(C)cc(OC[C@H](C)Nc2ccncc2)c1)C(C)C :: active
CC1(C)C(=O)N(Br)C(=O)N1Br :: inactive
Cc1ccc(O)cc1 :: inactive
CNCc1ccc(NC(=O)c2c[nH]c3c2C(=O)CCC3)cc1 :: inactive

Qu. Given "CC(C)=CCCC(C)=CC=O" , state the outcome it received in this test.
Ans. inactive

* * *

assay_info: BSK_3C_TissueFactor: BioMAP Diversity Plus: 3C Assay for Tissue Factor Biomarker Activity (AID 2282997)
details: BioMAP 3C HUVEC, tissue factor biomarker readout; actives raise or lower the signal
Activity calls are given as the source filed them. How the source made its calls: active means hit-call score of the fitted dose curve at least 0.9, where 1 is the maximum; inactive means score below 0.9.
The reply should name one outcome from 1 = active, 0 = inactive

O=C(CCCCCCCCc1cccnc1)N1CCC(C=C(c2ccccc2)c2ccccc2)CC1 :: 1
CN(C)c1ccc(Cc2ccc(N(C)C)cc2)cc1 :: 0
CNCc1ccc(NC(=O)c2c[nH]c3c2C(=O)CCC3)cc1 :: 0

Turning to the following compound.
Qu. Identify the outcome logged in this assay for the compound shown: "CC(C)=CCCC(C)=CC=O"
Ans. 0

* * *

Read-out: ABC Transporter (ABCB11), ABCB11 (gene 8647)
assay_info: LTEA_HepaRG_ABCB11: Life Technologies and Expression Analysis (LTEA) Assay for ABC Transporter (ABCB11) using HepaRG (AID 2283463)
details: mRNA level, 48 h; actives raise or lower the signal
The source made the active and inactive calls. The calls were made as follows: active = hit-call score of the fitted dose curve at least 0.9, where 1 is the maximum; inactive = score below 0.9.
Answer with one of the outcomes true (1) (active), false (0) (inactive)

COC(=O)c1ccccc1O :: false (0)
COCCOc1cc2cc(C(=O)NC3CCN(C(C)C)CC3)n(CC(=O)Nc3ccc(Cl)cn3)c2cn1 :: true (1)

Could you now consider this next molecule?
Qu. What did this assay record as the result for "CCn1nc(Cc2ccccc2)cc1C1CCN(C[C@H]2C[C@H](N(C)[C@@H](C(=O)O)C(C)C)C[C@@H]2c2cccc(F)c2)CC1" ?
Ans. false (0)

* * *

Read-out: Pyruvate Dehydrogenase Kinase 4 (PDK4), PDK4 (gene 5166)
assay_info: LTEA_HepaRG_PDK4: Life Technologies and Expression Analysis (LTEA) Assay for Pyruvate Dehydrogenase Kinase 4 (PDK4) using HepaRG (AID 2283525)
details: mRNA level, 48 h; actives raise or lower the signal
Active and inactive are the calls of the source. The calls were made as follows: active = hit-call score of the fitted dose curve at least 0.9, where 1 is the maximum; inactive = score below 0.9.
Outcome field: choose from Yes (active), No (inactive)

A selection of reference data follows.
Cc1c(-c2cccnc2)c2ccccc2n1CCCCC(=O)O :: Yes
CCCCC(CC)COC(=O)CCCCCCCCC(=O)OCC(CC)CCCC (stereo unspecified) :: No
CCc1cc(SCc2sc(-c3ccc(C(F)(F)F)cc3)nc2CN2CCN(c3ccc(OC)cc3)CC2)ccc1OCC(=O)O :: Yes
O=C(O)CCN(C1(C(=O)NO)CCCC1)S(=O)(=O)c1ccc(Oc2ccc(F)cc2)cc1 :: No
CCn1nc(Cc2ccccc2)cc1C1CCN(C[C@H]2C[C@H](N(C)[C@@H](C(=O)O)C(C)C)C[C@@H]2c2cccc(F)c2)CC1 :: No

Qu. Outcome? "O=C(OC[C@H]1O[C@@H](OC(=O)c2cc(O)c(O)c(OC(=O)c3cc(O)c(O)c(O)c3)c2)[C@H](OC(=O)c2cc(O)c(O)c(OC(=O)c3cc(O)c(O)c(O)c3)c2)[C@@H](OC(=O)c2cc(O)c(O)c(OC(=O)c3cc(O)c(O)c(O)c3)c2)[C@@H]1OC(=O)c1cc(O)c(O)c(OC(=O)c2cc(O)c(O)c(O)c2)c1)c1cc(O)c(O)c(OC(=O)c2cc(O)c(O)c(O)c2)c1"
Ans. Yes

Qu. How did this test come out for "CCOc1cccc(-n2cc(C(=O)N3CCN(c4cc(C(=O)O)c5ccccc5c4)CC3)nc2-c2ccc(C)cc2)c1" ?
Ans. Yes

Qu. In this assay, the call recorded for O=c1n(CC2CO2)c(=O)n(CC2CO2)c(=O)n1CC1CO1 (stereo unspecified) was what?
Ans. No

Qu. Hi team, can someone confirm the assay call for "CCCCCCCCCCCCCCCO" ?
Ans. No

Qu. Record request — test call for "COc1cccc(-c2ccc(/C=C\CN3CCCCCC3)cc2Cl)c1"
Ans. Yes

* * *

assay_info: BSK_SAg_SRB: Viability Assessment in the BioMAP Diversity Plus: SAg Assay (AID 2283096);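 further: cells read one day after compound addition; hits may be either gain or loss of signal compared with DMSO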
details: primary human HUVEC with PBMC
Calls of active or inactive are those of the source. Rule for the calls: active = hit-call score of the fitted dose curve at least 0.9, where 1 is the maximum; inactive = score below 0.9.
Allowed answers: active, inactive

CCOCCO :: inactive

Qu. Field: outcome | Entry: "CCc1cc(SCc2sc(-c3ccc(C(F)(F)F)cc3)nc2CN2CCN(c3ccc(OC)cc3)CC2)ccc1OCC(=O)O"
Ans. active

Qu. Just curious, what result did "CCNc1ccccc1" get here?
Ans. inactive

Qu. Record lookup: outcome of this test for O=c1n(CC2CO2)c(=O)n(CC2CO2)c(=O)n1CC1CO1 (stereo not drawn) ?
Ans. active

Qu. Returns: the outcome recorded for CC/C(=C\C(=N/O)C(N)=O)C(C)[N+](=O)[O-] (stereo not drawn) in this assay.
Ans. inactive

Qu. Assay outcome for "CC[C@H]1CC[C@H](NCc2cc3c(cc2OC)[C@H]2C[C@H]2C(=O)N3C)[C@H](c2ccccc2)N1" : what was it?
Ans. inactive

Qu. Returns: the outcome recorded for "Cn1c(=O)cc(Oc2ccc(F)cc2F)c2cnc(NCC(C)(C)O)nc21" in this assay.
Ans. inactive

Qu. Call for entry "CCCC(=O)OCC" :
Ans. inactive

Qu. // param item: "CC(C)=CCC/C(C)=C\CO" ; yields the recorded call
Ans. inactive

Qu. Hi, sorry to bother you, what did the test record for "C1N2CN3CN1CN(C2)C3" ?
Ans. inactive

Qu. Short answer needed: outcome of this test for "COc1cccc(-c2ccc(/C=C\CN3CCCCCC3)cc2Cl)c1" ?
Ans. active

Qu. GET /call?item= "CC[C@H]1OC(=O)[C@H](C)[C@@H](O[C@H]2C[C@@](C)(OC)[C@@H](O)[C@H](C)O2)[C@H](C)[C@@H](O[C@@H]2O[C@H](C)C[C@H](N(C)C)[C@H]2O)[C@](C)(O)C[C@@H](C)C(=O)[C@H](C)[C@@H](O)[C@]1(C)O" returns the recorded outcome of this test.
Ans. inactive

Qu. Hi, sorry to bother you, what did the test record for "CN(C)c1ccc(N=NS(=O)(=O)O)cc1" ?
Ans. inactive

Qu. Fill in: this test's call for "CC(C)CCCCCCCOC(=O)CCCCC(=O)OCCCCCCCC(C)C" is ___
Ans. inactive

Qu. Recorded test outcome, item "COCCOCCOCCOC"
Ans. inactive

Qu. Please let me know the test result on file for O=c1[nH]c2ccc(S(=O)CCN3CCC(Cc4ccc(F)cc4)CC3)cc2o1 (stereo not drawn) .
Ans. inactive

Qu. // param item: "Clc1nc(Cl)c(Cl)c(Cl)c1Cl" ; yields the recorded call
Ans. inactive

Qu. Status in this test for CC(C)=CCCC(C)CCO (stereo not drawn) ?
Ans. inactive

* * *

assay_info: TOX21_p53_BLA_p4_viability: Viability Assessment in the Tox21 HCT-116 p53 Agonism Beta-lactamase Assay, Phase 4 (AID 2283597);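 further: hits lower the luminescence signal meaning cytotoxicity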
Results filed as inconclusive are left out. Active and inactive are the calls of the source. Rule for the calls: active = hit-call score of the fitted dose curve at least 0.9, where 1 is the maximum; inconclusive = response in the unintended direction; inactive = score below 0.9.
Hello, when you answer, please use one of the following outcomes: t (active), f (inactive)

CC(C)CCO :: f
Nc1cccc(N)c1 :: f
CN(C)c1ccc(N=NS(=O)(=O)O)cc1 :: f
O=C1CCC(N2C(=O)c3ccccc3C2=O)C(=O)N1 (stereo unspecified) :: f
CNS(=O)(=O)c1cc(C(=O)N2CCC(CCN3C4CCC3CC(n3c(C)nc5ccccc53)C4)(c3cccc(F)c3)CC2)c(Cl)cc1F (stereo unspecified) :: t

For the next question, use this molecule.
Qu. Please share the test call associated with "CCC(C)(C)C(=O)O[C@H]1C[C@@H](C)C=C2C=C[C@H](C)[C@H](CC[C@@H]3C[C@@H](O)CC(=O)O3)[C@H]21" .
Ans. t
